Catalogue of inhibition values
# Protocol: drug combination toxicity in non-malignant astrocytes – cell-based, BGB or cisplatin IC20 combos, cytotoxicity control for chromothriptic childhood tumor combination screen (AID 1671460);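 note: cells exposed to compounds for 96 hours before viability readout; 0% = vehicle and 100% = killing control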
# Protocol conditions: Human astrocytes, viability inhibition, drug combinations; measured here: combo with BGB IC20; at 0.5 µM; stronger effect = higher value
Please state the figure in %; there is no need to write the unit.

In the examples that follow, each entry is paired with its recorded inhibition.
{"Compound": "N#Cc1ccc(OC2CCC(NC(=O)CCSc3nc4ccccc4c(=O)[nH]3)CC2)cc1 (stereo unspecified)", "Reported measurement": 26.2}
{"Compound": "CC(C=CC(=O)NO)=CC(C)C(=O)c1ccc(N(C)C)cc1 (stereo unspecified)", "Reported measurement": 96.5}
{"Compound": "CC(C)c1ccc(-c2cc(=O)c3ccccc3o2)cc1", "Reported measurement": 2.13}
{"Compound": "CC(C)OC(=O)[C@H](C)NP(=O)(OC[C@H]1O[C@@H](n2ccc(=O)[nH]c2=O)C(C)(F)[C@@H]1O)Oc1ccccc1 (stereo partly specified)", "Reported measurement": 6.4}
{"Compound": "O=C(CCCCCCC(=O)NO)NO", "Reported measurement": -3.26}

Input: Using the record for `Cc1c(Br)cc(NCC(=O)N/N=C/c2cc([N+](=O)[O-])ccc2O)cc1Br` , report its inhibition.
Output: 11.5
